# ASSAY_PROTOCOL: Particle size distribution (d50, sharpness index)
# Type: physicochemical
# TEST_SETTINGS: dry particle size distribution, volume based; trihydrate
OBSERVED_PROPERTY: d50 of the crystal thus obtained (μm)
Give the number; μm is assumed, so skip it.

COc1ccc2[n-]c([S@@+]([O-])Cc3ncc(C)c(OC)c3C)nc2c1.COc1ccc2[n-]c([S@@+]([O-])Cc3ncc(C)c(OC)c3C)nc2c1.O.O.O.[Mg+2] [Example 8(1), esomeprazole magnesium trihydrate]
33.0
COc1ccc2[n-]c([S@@+]([O-])Cc3ncc(C)c(OC)c3C)nc2c1.COc1ccc2[n-]c([S@@+]([O-])Cc3ncc(C)c(OC)c3C)nc2c1.O.O.O.[Mg+2] [Example 10(1), esomeprazole magnesium trihydrate]
39.9

The reported d50 of the crystal thus obtained of the compound COc1ccc2[n-]c([S@@+]([O-])Cc3ncc(C)c(OC)c3C)nc2c1.COc1ccc2[n-]c([S@@+]([O-])Cc3ncc(C)c(OC)c3C)nc2c1.O.O.O.[Mg+2] [Example 10(2), esomeprazole magnesium trihydrate] was 9.6

Given item COc1ccc2[n-]c([S@@+]([O-])Cc3ncc(C)c(OC)c3C)nc2c1.COc1ccc2[n-]c([S@@+]([O-])Cc3ncc(C)c(OC)c3C)nc2c1.O.O.O.[Mg+2] [Example 7, esomeprazole magnesium trihydrate] , the value recorded as its d50 of the crystal thus obtained is 189

Notebook: COc1ccc2[n-]c([S@@+]([O-])Cc3ncc(C)c(OC)c3C)nc2c1.COc1ccc2[n-]c([S@@+]([O-])Cc3ncc(C)c(OC)c3C)nc2c1.O.O.O.[Mg+2] [Example 2, esomeprazole magnesium trihydrate] , d50 of the crystal thus obtained read as 56.1

Entry COc1ccc2[n-]c([S@@+]([O-])Cc3ncc(C)c(OC)c3C)nc2c1.COc1ccc2[n-]c([S@@+]([O-])Cc3ncc(C)c(OC)c3C)nc2c1.O.O.O.[Mg+2] [Example 5, esomeprazole magnesium trihydrate] ; d50 of the crystal thus obtained = 149.9

---

# ASSAY_PROTOCOL: Particle size distribution (d50, sharpness index)
# Format: physicochemical
# TEST_SETTINGS: calculated from d10, d50, d90
Structures can show the parent of a compound that is named as a salt.
Measured sharpness index of the crystal thus obtained accompanies every entry in the list below.
Would you mind answering with just the numeric figure?

Worked examples follow.
Cc1cc(N2CCN([C@@H]3CN[C@H](C(=O)N4CCSC4)C3)CC2)n(-c2ccccc2)n1 [Example 22, teneligliptin hydrobromide hydrate]
3.77
CN(C)CCC[C@@]1(c2ccc(F)cc2)OCc2cc(C#N)ccc21 [Example 19, escitalopram oxalate]
4.87
N[C@@H](CCC(=O)N[C@@H](CS)C(=O)NCC(=O)O)C(=O)O [Example 23, glutathione]
2.27
CCCCCCOC(=O)N=C(N)c1ccc(NCc2nc3cc(C(=O)N(CCC(=O)OCC)c4ccccn4)ccc3n2C)cc1 [Example 24, dabigatran etexilate methanesulfonate]
2.61
O=C(O)CCCN1CCC(O[C@@H](c2ccc(Cl)cc2)c2ccccn2)CC1.O=S(=O)(O)c1ccccc1 [Example 30, bepotastine besilate]
2.15
Cc1cccc(C)c1NC(=O)CC12CCCN1CCC2.Cl [Example 25, pilsicainide hydrochloride anhydride]
2.29
Nc1nc(CC(=O)Nc2ccc(CCNC[C@H](O)c3ccccc3)cc2)cs1 [Example 27, mirabegron]
1.66
CC[C@H]1OC(=O)[C@H](C)[C@@H](O[C@H]2C[C@@](C)(OC)[C@@H](O)[C@H](C)O2)[C@H](C)[C@@H](O[C@@H]2O[C@H](C)C[C@H](N(C)C)[C@H]2O)[C@](C)(O)C[C@@H](C)CN(C)[C@H](C)[C@@H](O)[C@]1(C)O [Example 12, azithromycin monohydrate]
1.5
COC(=O)[C@H](c1ccccc1Cl)N1CCc2sccc2C1 [Example 16, clopidogrel sulfate]
1.7
CC[C@H]1OC(=O)[C@H](C)[C@@H](O[C@H]2C[C@@](C)(OC)[C@@H](O)[C@H](C)O2)[C@H](C)[C@@H](O[C@@H]2O[C@H](C)C[C@H](N(C)C)[C@H]2O)[C@](C)(OC)C[C@@H](C)C(=O)[C@H](C)[C@@H](O)[C@]1(C)O [Example 13, clarithromycin]
4.6

Could you now look at the following molecule, please?
Cn1c(=O)c2[nH]cnc2n(C)c1=O.O.O.O.O.[Mg] [Example 26, theophylline magnesium salt tetrahydrate] has a reported sharpness index of the crystal thus obtained of 3.06

Ref: patent US20210391038A1
